Assay System: T1, human PAR-2 (human, UniProt P55085 26-397)
T1 sequence: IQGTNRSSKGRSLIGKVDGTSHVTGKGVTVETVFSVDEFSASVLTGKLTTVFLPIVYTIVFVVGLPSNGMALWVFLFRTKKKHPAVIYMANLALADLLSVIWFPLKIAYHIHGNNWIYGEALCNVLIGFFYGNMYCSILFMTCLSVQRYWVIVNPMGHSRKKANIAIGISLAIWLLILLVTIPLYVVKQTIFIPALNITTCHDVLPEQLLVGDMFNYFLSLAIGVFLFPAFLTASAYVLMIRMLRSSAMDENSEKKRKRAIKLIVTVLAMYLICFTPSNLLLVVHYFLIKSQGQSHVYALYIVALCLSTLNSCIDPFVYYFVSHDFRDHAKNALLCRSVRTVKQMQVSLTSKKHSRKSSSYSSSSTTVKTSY
Assay Method Text: cell-based or functional assay
Readout Name: PAR-2 β-arrestin cell based assay IC50, 2 µM SLIGKV (nM)
State just the number; it will be interpreted in nM.

Known PAR-2 β-arrestin cell based assay IC50, 2 µM SLIGKV results, listed for orientation:
>>> numeric_readout("P24E975 (antibody, human IgG4 S228P, kappa, V domains shown) VH: QVQLVQSGAEVKKPGSSVKVSCKASGFSLSSYAISWVRQAPGQGLEWMGVIWGNQNVYYAQKFQGRVTITADESTSTAYMELSSLRSEDTAVYYCARWKGYKDYPFDYWGQGTLVTVSS VL: EIVLTQSPATLSLSPGERATLSCRASQNVYKWLDWYQQKPGQAPRLLIYNAYSRATGIPARFSGSGSGRDFTLTISSLEPEDFAVYYCQQHHHGWTFGGGTKVEIKR")
0.75
>>> numeric_readout("P24E794 (antibody, human IgG4 S228P, kappa, V domains shown) VH: QVQLVQSGAEVKKPGSSVKVSCKASGFSLSSYAISWVRQAPGQGLEWMGVIWGNGNTYYAQKFQGRVTITADESTSTAYMELSSLRSEDTAVYYCARWRGYKDYPFDYWGQGTLVTVSS VL: EIVLTQSPATLSLSPGERATLSCRASQNVYKWLDWYQQKPGQAPRLLIYNAYSRATGIPARFSGSGSGRDFTLTISSLEPEDFAVYYCQQHNSGWTFGGGTKVEIKR")
0.89

Entry under test: P24E977 (antibody, human IgG4 S228P, kappa, V domains shown) VH: QVQLVQSGAEVKKPGSSVKVSCKASGFSLSSYAISWVRQAPGQGLEWMGVIWGNQNVYYAQKFQGRVTITADESTSTAYMELSSLRSEDTAVYYCARWKGYKDYPFDYWGQGTLVTVSS VL: EIVLTQSPATLSLSPGERATLSCRASQNVYKWLDWYQQKPGQAPRLLIYDAYSRATGIPARFSGSGSGRDFTLTISSLEPEDFAVYYCQQHHSGWTFGGGTKVEIKR . Its PAR-2 β-arrestin cell based assay IC50, 2 µM SLIGKV was 1.73
